# Tested on: HCT-116 colon
# experiment-description: NCI-60 one-dose screen, 48 h
# cond: 10 µM unless noted
About 83,000 compounds went through this panel and 20% of them were active in at least one assay; those are over-represented in the sample as a whole. Active and inactive are the calls of the source. How the source made its calls: active means growth percent below 10; inactive means the rest.
Outcomes you can answer with include only these: 1.0 (active), 0.0 (inactive)

molecule	label-value
CC(=O)c1cc(C(=O)c2ccc3c(c2)Sc2ccccc2N3)n2ccccc12	1.0
CN1CCN(c2nc(NCCCCNc3ccnc4cc(Cl)ccc34)c3ccccc3n2)CC1	0.0
COc1cccc(C2=NN3C(C2)c2cc(Br)cc(OC)c2OC32CCN(Cc3ccccc3)CC2)c1 (configuration not stated)	0.0

Input: Field: outcome | Entry: Cn1cc(-c2nonc2-c2cn(C)c3ccc(F)cc23)c2cc(F)ccc21
Output: 0.0

Measured values drawn from PubChem BioAssay (NCI) for this set.
